System: NCI-60 cancer cell lines
assay.details: NCI-60 cancer cell line drug screen (GI50, MGM)
Assay type: cell-based, human
experimental.context: Homo sapiens, NCI-H322M, Non-Small Cell Lung Cancer, NCI-H322M; read-out: Antiproliferative Activities [GI50 (μM)]
In plain terms, low GI50, meaning strictly below 0.3 µM, gives rule met, and everything else gives rule not met.

                  compound_structure_string  class_assignment
0  CNCCCn1c2c(c3ccc([N+](=O)[O-])cc3c1=O)C(=O)c1cc(OC)cnc1-2          rule met
1  COc1cc2c(cc1O)-c1c(c3ccc([N+](=O)[O-])cc3c(=O)n1CCCn1ccnc1)C2=O      rule not met
2  COc1cc2c3c(n(CCCn4ccnc4)c(=O)c2cc1OC)-c1cc2c(cc1C3=O)OCO2      rule not met
3  CNCCCn1c2c(c3ccc(Cl)cc3c1=O)C(=O)c1cc(OC)cnc1-2      rule not met
4  COc1cc2c(cc1O)-c1c(c3ccc([N+](=O)[O-])cc3c(=O)n1CCCN)C2=O      rule not met
5  COc1cnc2c(c1)C(=O)c1c-2n(CCCNC(C)C)c(=O)c2cc(F)ccc12      rule not met
6  COc1cc2c3c(n(CCCN(C)C)c(=O)c2cc1OC)-c1cc2c(cc1C3=O)OCO2      rule not met
7  COc1cnc2c(c1)C(=O)c1c-2n(CCCNCCN2CCOCC2)c(=O)c2cc([N+](=O)[O-])ccc12          rule met
